Where do the numbers come from? From ChEMBL document CHEMBL2028040.

# key: entry, value: pIC50
- System: Leishmania infantum
- TEST DESCRIPTION: MMV: Inhibition of Leishmania infantum (MHOM/MA/BE/67) in vitro.
- Assay type: functional, organism-based
pIC50: −log10 of the molar value.
PROPERTY: pIC50

MOLECULE | PROPERTY | MEASUREMENT
CCOC(=O)c1cnc2ccc(CC)cc2c1O | pIC50 | < 4.49
CCOc1cc2c(cc1OCC)C(c1cc(Cl)c(O)c(OCC)c1)NCC2 (stereo unspecified) | pIC50 | 4.76
CCOc1ccc(Nc2ccnc3cc(Cl)ccc23)cc1 | pIC50 | < 4.49
O=c1c2c([nH]c3ccccc13)CCCC2 | pIC50 | < 4.49
COc1ccc(-c2cc3c(nn2)-c2ccccc2C3=O)cc1 | pIC50 | < 4.49
COc1ccc2nc(C)cc(Nc3ccc(Cl)cc3)c2c1 | pIC50 | 5.39
CCOC(=O)c1c(C)n(-c2ccccc2)c2ccc(OC(=O)c3cc(OC)c(OC)c(OC)c3)cc12 | pIC50 | < 4.49
N=c1c2ccccc2nnn1-c1cccc(C(F)(F)F)c1 | pIC50 | < 4.49
Oc1ccc(Cl)cc1CNc1nc2ccccc2[nH]1 | pIC50 | 4.80
COCCN(C(=O)Cc1cccs1)C(C(=O)NCc1ccc(OC)cc1)c1ccc(C(C)C)cc1 (stereo unspecified) | pIC50 | < 4.49
COc1cccc(C(=O)NC(c2ccc(C)cc2)c2cc(Cl)c3cccnc3c2O)c1 (stereo unspecified) | pIC50 | < 4.49

###

- TEST DESCRIPTION: MMV: Cytotoxicity against human fibroblasts (MRC-5) cells.
- TEST SETTINGS: MRC-5 cells (human fibroblasts)
# key: entry, value: IC50

MOLECULE | IC50
OC(Cn1nnc2ccccc21)Cn1c2ccc(Br)cc2c2cc(Br)ccc21 (stereo not given) | > 32 µM
COc1cc(-c2nc(-c3ccccc3)c(-c3ccccc3)[nH]2)cc(OC)c1O | > 32 µM
CCOc1cc2c(cc1OCC)C(c1cc(C)c(O)c(C)c1)NCC2 (stereo not given) | > 32 µM
Cc1ccc(N2C(=O)C3C(C2=O)C2(c4ccccc4)C(=O)C3(c3ccccc3)C(c3ccccc3)=C2c2ccccc2)cc1 (stereo not given) | > 32 µM
Cc1ccc(Nc2nc(N)c3ccccc3n2)cc1Cl | 15.4 µM

###

# key: entry, value: IC50
- TEST DESCRIPTION: MMV: Cytotoxicity against human fibroblasts (MRC-5) cells.
- TEST SETTINGS: MRC-5 cells (human fibroblasts)
PROPERTY: IC50

COMPOUND | PROPERTY | MEASUREMENT
CN(C)CCCNCc1ccc(-c2ccc(F)c(Cl)c2)o1 | IC50 | 17.3 µM
Oc1ccc(-c2nc(-c3ccc4oc5ccc(-c6[nH]c(-c7ccc(O)cc7)nc6-c6ccccc6)cc5c4c3)c(-c3ccccc3)[nH]2)cc1 | IC50 | 15.2 µM
COc1ccccc1CNC(=O)CCn1c(=O)[nH]c2ccsc2c1=O | IC50 | > 32 µM
COCCNC(=O)c1ccc(OC2CCN(Cc3ccc(F)c(F)c3)CC2)c(Cl)c1 | IC50 | > 32 µM
Cc1sc(NC(=O)c2ccco2)c(C(c2cccnc2)N2CCC(Cc3ccccc3)CC2)c1C (stereo unspecified) | IC50 | > 32 µM
c1ccc(-c2ccc(-c3nc4ccccc4[nH]3)cc2)cc1 | IC50 | > 32 µM
Cc1cccc(N2C(=O)C3C(C2=O)C2(c4ccccc4)C(=O)C3(c3ccccc3)C(c3ccc4c(c3)OCO4)=C2c2ccc3c(c2)OCO3)c1 (stereo unspecified) | IC50 | > 32 µM
Cc1ccc(Nc2nc(NCCO)c3ccccc3n2)cc1C | IC50 | 11.4 µM
COc1cccc(Nc2nc(NCCO)c3ccccc3n2)c1 | IC50 | 26.3 µM
COc1ccc(C2c3ccc4ccccc4c3Oc3ncn(CCCN(C)C)c(=N)c32)cc1 (stereo unspecified) | IC50 | 3.49 µM
CCC(c1ccccc1)c1nn2c(-c3cccs3)nnc2s1 (stereo unspecified) | IC50 | > 32 µM
Cc1ccc(C2CC(C(F)(F)F)n3nc(C(=O)N4CCN(C(c5ccccc5)c5ccccc5)CC4)cc3N2)cc1 (stereo unspecified) | IC50 | > 32 µM
CCc1ccc(Nc2cc(C)nc3nc(C)nn23)cc1 | IC50 | > 32 µM
COc1cc(OC)c(N(C)C(=O)c2cc3c(s2)-c2ccccc2S(=O)(=O)C3)cc1Cl | IC50 | > 32 µM
COC(=O)c1ccc(Cl)c2c1C1C=CCC1C(c1cccc3ccccc13)N2 (stereo unspecified) | IC50 | > 32 µM
OC(CNC1CCCCC1)Cn1c2ccc(I)cc2c2cc(I)ccc21 (stereo unspecified) | IC50 | 4.03 µM

###

- TEST DESCRIPTION: MMV: Cytotoxicity against human fibroblasts (MRC-5) cells.
- TEST SETTINGS: MRC-5 cells (human fibroblasts)
# key: entry, value: IC50

COMPOUND | IC50
CCOC(=O)C1CCN(C(=O)CN2C(=O)c3ccccc3C2c2c[nH]c3ccccc23)CC1 (centres undefined) | > 32 µM
COc1ccc(NC(=O)C2c3ccccc3C(=O)N(CC(C)C)C2c2cccs2)cc1Cl (centres undefined) | > 32 µM
Cc1ccc(NC(=O)Nc2cccc(Cl)c2)cc1F | > 32 µM
CC(C)(C)c1ccc(O)c(CNC2CCCCC2)c1 | > 32 µM
Oc1ccc(Cl)cc1CNc1nc2ccccc2[nH]1 | 15.9 µM
CCCC(c1nnnn1C1CCCCC1)N1CCN(C(=O)c2ccco2)CC1 (centres undefined) | > 32 µM
OC(CNC1CCCCC1)Cn1c2ccccc2c2ccccc21 (centres undefined) | > 32 µM
CCOc1c(Cl)cc(CNC(C)C(O)c2ccccc2)cc1OC (centres undefined) | > 32 µM
CC(C)CCNCC(O)Cn1c2ccccc2c2ccccc21 (centres undefined) | 16.2 µM
COc1ccc(C=C2SC(=N)N(c3ccccc3OC)C2=O)cc1 | 4.49 µM
CC(C)(C)c1ccc(C(=O)Nc2c3c(nn2-c2cccc(Cl)c2)CSC3)cc1 | > 32 µM
O=C(CCc1ccco1)NC1CCN(CC2(c3ccc(Cl)cc3)CCC2)CC1 | > 32 µM
O=C(Cc1ccccc1)NC(c1ccc(Cl)cc1)c1c(O)ccc2ccccc12 (centres undefined) | 8.22 µM
COc1ccc2nc(C)cc(Nc3ccc(Cl)cc3)c2c1 | > 32 µM

###

- System: Leishmania infantum
- TEST DESCRIPTION: MMV: Inhibition of Leishmania infantum (MHOM/MA/BE/67) in vitro.
- Type: functional, organism-based
PROPERTY: IC50

ENTRY SMILES | SUBJECT OF TEST | MEASUREMENT
Cc1ccc(C)c(-c2csc(Nc3ccc(C)c(C)c3)n2)c1 | Leishmania infantum | > 32 µM
CC(C)CNC(=O)c1c(N)n(CCc2ccccc2F)c2nc3ccccc3nc12 | Leishmania infantum | > 32 µM
CN(C)c1ccc(-c2nc3cc(N)ccc3[nH]2)cc1 | Leishmania infantum | > 32 µM

###

- TEST DESCRIPTION: MMV: Cytotoxicity against human fibroblasts (MRC-5) cells.
- TEST SETTINGS: MRC-5 cells (human fibroblasts)
PROPERTY: IC50

ENTRY SMILES | MEASUREMENT
Clc1ccc2[nH]c3c(NCCCN4CCOCC4)ncnc3c2c1 | > 32 µM
Cn1c(=O)n(C)c2cc(CNCCNc3ccnc4cc(Cl)ccc34)ccc21 | > 32 µM
CCn1c(CN2CCN(Cc3ccccc3)CC2)nc2cc(NC(=O)c3cccs3)ccc21 | > 32 µM

###

- TEST DESCRIPTION: MMV: Cytotoxicity against human fibroblasts (MRC-5) cells.
- TEST SETTINGS: MRC-5 cells (human fibroblasts)
pIC50: −log10 of the molar value.

COMPOUND | pIC50
CC1CCN(Cc2c(O)ccc3cc(-c4nc5ccccc5s4)c(=O)oc23)CC1 | 4.63
COc1cc(OC)cc(N2C(=O)N(Cc3ccc(C(C)(C)C)cc3)c3ccccc3S2(=O)=O)c1 | < 4.49
Cc1ccc(N2C3c4ccccc4N(S(=O)(=O)c4ccc(C)cc4)C2c2ccccc2N3S(=O)(=O)c2ccc(C)cc2)cc1 | < 4.49
COc1cc(SC)ccc1C(=O)N1CCCC(C)C1 (stereo not given) | < 4.49
COc1ccc(-c2cc3c(SCC(=O)Nc4cc(C(F)(F)F)ccc4Cl)nccn3n2)cc1 | < 4.49
COc1ccc(C(=O)NC(c2ccc(Cl)cc2Cl)c2cc(Cl)c3cccnc3c2O)cc1 (stereo not given) | 5.11
COc1cc2c3cc1Oc1c(OC)c(OC)cc4c1C(Cc1ccc(O)c(c1)Oc1ccc(cc1)CC3N(C)CC2)N(C)CC4 (stereo not given) | 5.35
CCCc1c(C)nc2ccc(Br)cc2c1O | < 4.49
OC1CCCCC1C1(NC(=S)Nc2ccccc2)CCCCC1 (stereo not given) | < 4.49
COc1ccc(Nc2cc(C)nc(NCc3ccccc3)n2)cc1 | 4.87
O=C(CSc1ccc2nnc(-c3cccc(F)c3)n2n1)Nc1ccc2c(c1)OCO2 | < 4.49
O=C(NC1CCN(Cc2ccccc2)CC1)c1cc2nc(-c3ccc(Cl)s3)cc(C(F)(F)F)n2n1 | < 4.49
O=C(Nc1ccc(Br)cc1)Nc1cccc(Cl)c1 | < 4.49
Cc1ccc(C)c(-c2csc(Nc3ccc(C)c(C)c3)n2)c1 | < 4.49
Oc1ccc(Br)cc1CN1CCN(Cc2cccc(F)c2)CC1 | < 4.49
